The entries below come with measured CC50 values attached.
system: THP-1 macrophages; assay: Effect of compounds on host cell viability (MTT); assay type: cell-based; conditions: read-out: 24h LC50; THP1 macrophages, 24-hour incubation, MTT assay (Supplemental Table 2)
Give your result in µM as a bare value.

[
  {
    "Compound": "FC(F)(F)c1cc(C2CCCCC2)n(-c2ccc(NC3CCN(Cc4ccccc4)CC3)cc2)n1 [Compound 381]",
    "System Tested": "THP-1 macrophages",
    "Readout Name": "CC50",
    "Observed": 12.4
  },
  {
    "Compound": "NC1CCN(c2ccc(-n3nc(C(F)(F)F)cc3C3CCCCC3)cc2)CC1",
    "System Tested": "THP-1 macrophages",
    "Readout Name": "CC50",
    "Observed": 27.5
  }
]

For record CC(C)(C)c1ccc(-c2nc(C(F)(F)F)cn2-c2ccc(NC(=O)CN)cc2)cc1 the listed CC50 is 27.6

* * *

system: THP-1 macrophages; experiment: Effect of compounds on host cell viability (MTT); assay type: cell-based; settings: read-out: 24h LC50; THP1 macrophages, 24-hour incubation, MTT assay (Supplemental Table 2)
Readout Name: CC50

[
  {
    "Molecule": "CCOC(=O)CNc1ccc(-n2cc(C(F)(F)F)nc2-c2ccc(C(F)(F)F)cc2)cc1 [Compound 403]",
    "CC50": "> 50 µM"
  }
]

Record FC(F)(F)c1c[nH]c(-c2ccc(-c3ccccc3)cc2)n1 [Compound 31] has THP-1 macrophages CC50 equal to > 50 µM

// CC50 (THP-1 macrophages) for FC(F)(F)c1ccc(CNC2CCN(c3ccc(-n4nc(C(F)(F)F)cc4-c4ccc(-c5ccc(C(F)(F)F)cc5)cc4)cc3)C2)cc1 (stereo not shown) [Compound 24] = > 50 µM

Recorded CC50 for NCCOCCN1CCC(Oc2ccc(-n3nc(C(F)(F)F)cc3C3CCCCC3)cc2)CC1 [Compound 423] on THP-1 macrophages was 3.4 µM

* * *

Below is a list of entries, each paired with its recorded CC50 value.
test system: THP-1 macrophages; experiment: Effect of compounds on host cell viability (MTT); type: cell-based; details: read-out: 24h LC50; THP1 macrophages, 24-hour incubation, MTT assay (Supplemental Table 2)

As a guide, the following entries are already answered.
[
  {
    "Compound": "Nc1ccc(-n2cc(C(F)(F)F)nc2-c2ccc(Oc3ccccc3)cc2)cc1",
    "Readout Name": "CC50",
    "Observed": "> 50 µM"
  },
  {
    "Compound": "CC(C)C#Cc1ccc(-c2cc(C(F)(F)F)nn2-c2ccc(N3CCC(N)C3)cc2)cc1 (stereo not shown)",
    "Readout Name": "CC50",
    "Observed": "19.5 µM"
  },
  {
    "Compound": "CCCCCCNc1ccc(-n2nc(C(F)(F)F)cc2-c2ccc(-c3ccc(C(F)(F)F)cc3)cc2)cc1",
    "Readout Name": "CC50",
    "Observed": "> 50 µM"
  }
]

# CC50 of FC(F)(F)c1cc(-c2ccc(Cl)c(Cl)c2)n(-c2ccc(Br)cc2)n1 = > 50 µM

Sample FC(F)(F)c1ccc(-c2ccc(-c3cc(C(F)(F)F)nn3-c3ccc(NCCCCOc4ccccc4)cc3)cc2)cc1 ; CC50 observed: 34.7 µM

Value of CC50 reported for the compound O=[N+]([O-])c1ccc(-n2nc(C(F)(F)F)cc2-c2ccc(-c3ccc(S(F)(F)(F)(F)F)cc3)cc2)cc1 is > 50 µM

Per the record, N#Cc1ccc(CNC2CCN(c3ccc(-n4nc(C(F)(F)F)cc4-c4ccc(-c5ccc(C(F)(F)F)cc5)cc4)cc3)C2)cc1 (stereo not shown) has CC50 of > 50 µM

* * *

Assay: Effect of compounds on host cell viability (MTT)
Format: cell-based
Details: human
Protocol: The cells were cultured at 37C, 5% CO2 in RPMI medium (ATCC) supplemented with 10% FBS, 1% Penicillin/Streptomycin and 0.05 mM of β-mercaptoethanol. Cells were used in experiments up to passage 10. Effect of the compounds on THP-1 cell viability measured using thiazolyl blue tetrazolium bromide which measures cell metabolic activity (MTT). THP-1 cells were seeded in a 96 well plate (25,000 cells/well) overnight then differentiated with 150 nM phorbol 12-myristate 13-acetate (PMA) over 72 hours. […]
Readout Name: CC50 at 72 h (µM)
Your answer is read as µM, so omit the unit and give the number.

[
  {
    "Compound": "NCC(=O)Nc1ccc(-n2nc(C(F)(F)F)cc2-c2ccc3c(ccc4ccccc43)c2)cc1 [AR-12, reference compound]",
    "CC50 at 72 h (µM)": 8.6
  }
]

Record N#Cc1ccc(CNCC(=O)Nc2ccc(-n3nc(C(F)(F)F)cc3C3CCCCC3)cc2)cc1 . Reported CC50 at 72 h: 20.2

* * *

system: THP-1 macrophages; test: Effect of compounds on host cell viability (MTT); assay type: cell-based; details: read-out: 24h LC50; THP1 macrophages, 24-hour incubation, MTT assay (Supplemental Table 2)
Exam item: assign Condition met to entries whose CC50 is below 20 µM and Condition not met to entries at or above 20 µM. Note that a value of exactly 20 µM receives Condition not met.

[
  {
    "Compound": "O=[N+]([O-])c1ccc(-n2cc(C(F)(F)F)nc2-c2ccc(-c3ccccc3)cc2)cc1",
    "Qualitative Label": "Condition met"
  }
]

Ask | Decide: CC50 of CCCCNc1ccc(-n2nc(C(F)(F)F)cc2-c2ccc(-c3ccc(C(F)(F)F)cc3)cc2)cc1 strictly below 20 µM?
Reply | Condition not met

Ask | Item FC(F)(F)c1ccc(-c2cnnn2-c2ccc(Br)cc2)cc1 : CC50 beneath 20 µM, strictly?
Reply | Condition not met

Ask | Does this compound meet the criterion CC50 < 20 µM? FC(F)(F)c1ccc(-c2ccc(-c3cc(C(F)(F)F)nn3-c3cccc(Br)c3)cc2)cc1
Reply | Condition not met

Ask | Please indicate whether the reported CC50 of COc1ccc(-n2nc(C(F)(F)F)cc2-c2ccc(-c3ccc(C(F)(F)F)cc3)cc2)c(C)c1 is strictly below 20 µM.
Reply | Condition not met

Ask | Is the reported CC50 for CC(=O)NCCCCCN1CCC(Oc2ccc(-n3nc(C(F)(F)F)cc3C3CCCCC3)cc2)CC1 strictly below 20 µM?
Reply | Condition not met

Ask | Say whether its CC50 is strictly beneath 20 µM. Entry: Fc1cccc(CN2CCN(c3ccc(-n4nc(C(F)(F)F)cc4-c4ccc(-c5ccc(C(F)(F)F)cc5)cc4)cc3)CC2)c1
Reply | Condition not met

Ask | Is CC50 strictly under 20 µM for the entry FC(F)(F)c1cc(-c2ccccc2C(F)(F)F)n(-c2ccc(Br)cc2)n1 ?
Reply | Condition not met

Ask | Bench note: check whether Fc1ccccc1CNC1CCN(c2ccc(-n3nc(C(F)(F)F)cc3-c3ccc(-c4ccc(C(F)(F)F)cc4)cc3)cc2)C1 (centres unmarked) shows CC50 below 20 µM
Reply | Condition not met

Ask | API: query returns whether the compound falls strictly under 20 µM in CC50. Query: NCC(=O)Nc1ccc(-n2cc(C(F)(F)F)nc2-c2ccc(-c3ccc(C(F)(F)F)cc3)cc2)cc1
Reply | Condition met

* * *

Each entry below carries its recorded CC50.
tested on: THP-1 macrophages; test: Effect of compounds on host cell viability (MTT); assay type: cell-based; details: read-out: 24h LC50; THP1 macrophages, 24-hour incubation, MTT assay (Supplemental Table 2)
// return numeric value only (unit: µM, not printed)

[
  {
    "Compound": "FC(F)(F)c1ccc(-c2ccc(-c3cc(C(F)(F)F)nn3-c3ccc(NC4CN(Cc5ccccc5)C4)cc3)cc2)cc1",
    "Observed": 19
  },
  {
    "Compound": "FC(F)(F)c1cc(C2CCCCC2)n(-c2ccc(NC3CCN(Cc4ccccc4)C3)cc2)n1 (stereo not shown)",
    "Observed": 15.5
  },
  {
    "Compound": "FC(F)(F)c1ccc(-c2ccc(-c3nc(C(F)(F)F)c[nH]3)cc2)cc1",
    "Observed": 48.8
  },
  {
    "Compound": "FC(F)(F)c1ccc(-c2ccc(-c3cc(C(F)(F)F)nn3-c3ccc(N4CCNCC4)cc3)cc2)cc1 [Compound 220]",
    "Observed": 15.4
  },
  {
    "Compound": "NC1CCN(c2ccc(-n3nncc3-c3ccc(C(F)(F)F)cc3)cc2)C1 (stereo not shown)",
    "Observed": 37.2
  },
  {
    "Compound": "FC(F)(F)c1ccc(-c2ccc(-c3nc(C(F)(F)F)cn3-c3ccc(N4CCNCC4)cc3)cc2)cc1",
    "Observed": 6.5
  },
  {
    "Compound": "O=C(CNCc1ccc(O)cc1)Nc1ccc(-n2nc(C(F)(F)F)cc2C2CCCCC2)cc1",
    "Observed": 21.2
  },
  {
    "Compound": "NCC(=O)Nc1ccc(-n2cc(C(F)(F)F)nc2-c2ccc(OC(F)(F)F)cc2)cc1",
    "Observed": 31.6
  },
  {
    "Compound": "FC(F)(F)c1cc(C2CCCCC2)n(-c2ccc(NC3CNC3)cc2)n1",
    "Observed": 30.9
  },
  {
    "Compound": "CC(C)(C)c1ccc(-c2nc(C(F)(F)F)cn2-c2ccc(N)cc2)cc1",
    "Observed": 28.8
  }
]

The recorded CC50 for entry N#Cc1ccc(CN2CCC(Nc3ccc(-n4nc(C(F)(F)F)cc4C4CCCCC4)cc3)C2)cc1 (stereo not shown) equals 13.2

The compound identified as NC1CCN(c2ccc(-n3nc(C4CCCCC4)cc3C(F)(F)F)cc2)C1 (stereo not shown) registered its CC50 at 14.4

GET /value?item= NC1CCN(c2ccc(-n3nc(C(F)(F)F)cc3-c3ccc(F)cc3)cc2)C1 (stereo not shown) &field=CC50 returns 14.4
